Experiment: Aqueous solubility of the compound in 0.01 M phosphate buffered saline at pH 7.4 after 2 hrs by turbidimetric method
Assay type: physicochemical
quantityMeasured: solubility kinetic at 2 h (µM)
All answers are understood in µM, so give the number only.

* CC(C)C(=O)Nc1ccc2nn(-c3ccc(Cl)cc3)nc2c1 | 1

In the following, a different compound is considered.
Specify measured solubility kinetic at 2 h for CC(C)C(=O)Nc1ccc2cn(-c3ccc(Cl)cc3)nc2c1 .
3
